tested on: SN12C renal; test: NCI-60 one-dose screen, 48 h (100 = growth as untreated, 0 = no growth, -100 = all killed); details: 10 µM unless noted
Compounds without any hit were thinned out: in the full panel of roughly 83,000, 20% have a hit.
Grouping key: growth. Bins: class A (below 20%), class B (20% to below 60%), class C (60% or more)

INSERT INTO results (molecule, assigned_label) VALUES
  ('CC(=O)Nc1ccc(S(=O)(=O)Nc2ccc(-c3ccc4c(c3)NC(=O)/C4=C\c3ccc[nH]3)cc2)cc1', 'class C'),
  ('O=C(Nc1ccc(Br)cc1)Nc1ccc(-c2ccc3c(c2)NC(=O)/C3=C\c2ccc[nH]2)cc1', 'class B'),
  ('C=CCSc1nnc(-c2c(C)nc3sccn23)o1', 'class C'),
  ('Fc1ccc(Nc2nnc(-c3c[nH]c4ccccc34)o2)cc1', 'class B'),
  ('Cc1nn(-c2ccccc2)c2nc(C)n(CC(=O)N/N=C/c3ccccc3O)c(=O)c12', 'class B'),
  ('O=C(N=Nc1c(O)[nH]c2ccc(Cl)cc12)c1ccc2nc(-c3ccc(Cl)cc3)[nH]c2c1', 'class A'),
  ('N/C(=N\c1nc2ccccc2s1)NC(=O)Nc1ccccc1[N+](=O)[O-]', 'class A'),
  ('CC1=C(C(=O)OCc2ccccc2)C(c2ccc(N(C)C)cc2)n2c(nc3ccccc32)N1 (stereo not given)', 'class C'),
  ('Cc1ccc(N=Nc2c(N)nn3c(-c4cc5ccccc5oc4=O)ccnc23)cc1', 'class B'),
  ('CN(C)CCCNC(=S)Nc1ccc(/C=C/c2ccc(Cl)cc2)cc1', 'class A'),
  ('Cc1ccc(S(=O)(=O)Nc2ccc(-c3ccc4c(c3)NC(=O)/C4=C\c3ccc[nH]3)cc2)cc1', 'class C'),
  ('CS(=O)(=O)Nc1cncc(-c2ccc3ncnc(NCc4ccccc4)c3c2)c1', 'class B'),
  ('Fc1ccc(N2CC(Cn3c(C(F)(F)F)cc4c(Cl)ncnc43)C2)c(F)c1', 'class A'),
  ('O=C(CSc1nc2sc3c(c2c(=O)n1-c1ccc(Cl)cc1)CCCC3)NNC(=O)c1ccc(F)cc1', 'class B'),
  ('O=C(CSc1nnc(-c2ccc(-c3nc4ccccc4[nH]3)cc2)o1)Nc1ccc(Br)cc1', 'class B'),
  ('Cc1[nH]nc2ccc3nc(-c4cn[nH]c4C(F)(F)F)c4c(c3c12)CCCC4', 'class A'),
  ('C[C@H](NC(=O)c1ccc2c(-c3ccc(C(F)(F)F)cc3)cccc2c1)c1ccccn1', 'class B'),
  ('C#CCN(C)CCCOc1ccc(N(C)C(=O)c2cc(C(C)C)c(O)cc2O)cc1Cl', 'class A'),
  ('Cc1cccc(NCC(=O)N2CCN(c3ncnc4c3cnn4-c3ccccc3)CC2)c1', 'class C');

====

system: SF-295 CNS; experiment: NCI-60 one-dose screen, 48 h; conditions: 10 µM unless noted
The panel holds about 83,000 compounds, 20% with a hit somewhere; the sample as a whole holds those more often. The source made the active and inactive calls. The calls were made as follows: active = growth percent below 10; inactive = the rest.
Possible outcomes: true = active, false = inactive

INSERT INTO results (compound, target_under_test, assigned_label) VALUES
  ('O=C(NNC(=O)c1ccc(OCc2nc3ccc(Cl)cc3[nH]2)cc1)Nc1ccc(Cl)c(Cl)c1', 'SF-295 CNS', 'false'),
  ('Cc1ccc(C(=O)Nc2cc(-n3cnc(F)c3)cc(C(F)(F)F)c2)cc1C#Cc1cnc2cccnn12', 'SF-295 CNS', 'false'),
  ('Nc1nn2c(-c3cc4ccccc4oc3=O)ccnc2c1N=Nc1ccccc1', 'SF-295 CNS', 'false'),
  ('O=c1ccc(Cn2c(C(F)(F)F)cc3c(Cl)ncnc32)c[nH]1', 'SF-295 CNS', 'false'),
  ('Cc1nn(-c2ccccc2)c2ncn(CC(=O)N/N=C/c3ccccc3O)c(=O)c12', 'SF-295 CNS', 'false'),
  ('O=C1CC(c2ccc(I)cc2)OC2C=Cc3ccccc3C12 (stereo not given)', 'SF-295 CNS', 'false'),
  ('COc1ccc2c(c1)C(Sc1ccc(F)cc1)c1c(nc(N)c(C#N)c1N)O2 (stereo not given)', 'SF-295 CNS', 'false'),
  ('Cc1ccc(C(=O)Nc2ccc(-n3ccnc3)c(C(F)(F)F)c2)cc1C#Cc1cnc2cccnn12', 'SF-295 CNS', 'false'),
  ('O=C1/C(=C/C=C/c2ccco2)SC(=S)N1CC(=S)C1C=CS(=O)(=O)C1 (stereo not given)', 'SF-295 CNS', 'false'),
  ('S=C(Nc1ccc(OCc2nc3ccc(Cl)cc3[nH]2)cc1)NC1CCCCC1', 'SF-295 CNS', 'true');

====

tested on: MDA-MB-435 melanoma; test: NCI-60 one-dose screen, 48 h (100 = growth as untreated, 0 = no growth, -100 = all killed); conditions: 10 µM unless noted
This is part of a sample that, as a whole, favours compounds with a hit. Of some 83,000 tested, about 20% had one in any assay.
measured-parameter: growth (%)

INSERT INTO measurements (compound, unit_label, numeric_value) VALUES
  ('COc1ccc(-c2cc(C(=O)N=Nc3c(O)[nH]c4ccc(Cl)cc34)c3ccccc3n2)cc1OC', '%', 119),
  ('Nc1cc2ccccc2c(=O)n1NC(=O)c1ccccc1', '%', 99.8),
  ('Cc1cc(=O)oc2cc(OCC(O)CNN3C(=O)c4cccc5c(N6CCN(C)CC6)ccc(c45)C3=O)ccc12 (stereo not given)', '%', 56.9),
  ('O=C(Cn1c(/C=C/c2ccc([N+](=O)[O-])cc2)nc2ccccc2c1=O)Nc1ccccc1', '%', 91),
  ('Nc1nn2c(-c3cc4cc(Br)ccc4oc3=O)ccnc2c1N=Nc1ccc(S(N)(=O)=O)cc1', '%', 78.5);

====

Listed compounds paired with reported growth
test system: NCI-H522 lung; test: NCI-60 one-dose screen, 48 h (100 = growth as untreated, 0 = no growth, -100 = all killed); settings: 1 µM
Compounds without any hit were thinned out: in the full panel of roughly 83,000, 20% have a hit.
measured-parameter: growth (%)

INSERT INTO assay_data (smi, measured_parameter, numeric_value) VALUES
  ('CC/C(=C(\c1ccc(O)cc1)c1ccc(OCCN(C)C(=O)CCOCCNC(=O)c2ccc3c(c2)CN([C@@H]2CCC(=O)NC2=O)C3=O)cc1)c1ccccc1', 'growth', 92.6),
  ('CC/C(=C(\c1ccc(O)cc1)c1ccc(OCCN(C)C(=O)COCCNC(=O)Cc2ccc3c(c2)CN([C@@H]2CCC(=O)NC2=O)C3=O)cc1)c1ccccc1', 'growth', 92.2),
  ('CC/C(=C(/c1ccc(O)cc1)c1ccc(OCCN(C)C(=O)COCCOCCNC(=O)c2ccc3c(c2)CN([C@@H]2CCC(=O)NC2=O)C3=O)cc1)c1ccccc1', 'growth', 91.7),
  ('CC/C(=C(\c1ccc(O)cc1)c1ccc(OCCNC)cc1)c1ccccc1', 'growth', 87.9);

====

Listed molecules paired with reported growth
tested on: RXF 393 renal; test: NCI-60 one-dose screen, 48 h (100 = growth as untreated, 0 = no growth, -100 = all killed); settings: 10 µM unless noted
Compounds without any hit were thinned out: in the full panel of roughly 83,000, 20% have a hit.
measured-parameter: growth (%)

INSERT INTO assay_data (molecule, measured_parameter, numeric_value) VALUES
  ('COc1cc(/C=C/C(=O)c2cnn(-c3cc(=O)[nH]c4ccccc34)c2C)cc(OC)c1OC', 'growth', -6.88),
  ('Cc1nc(N)ncc1-c1ccc2ncnc(N3CCc4cc(F)c(Cl)cc43)c2c1', 'growth', 14.6),
  ('CN(C)c1nc(NCCNS(=O)(=O)c2ccc(C(=O)/C=C/c3ccc(F)cc3)cc2)nc(N2CCOCC2)n1', 'growth', 76.6),
  ('N#CC1=C(c2cccs2)Nc2c(c(-c3ccccc3)nn2-c2ccccc2)C12C(=O)Nc1ccc(Cl)cc12 (stereo not given)', 'growth', -11.4),
  ('O=C(Nc1ccc(-c2ccc3c(c2)NC(=O)/C3=C\c2ccc[nH]2)cc1)Nc1ccc(Cl)c(C(F)(F)F)c1', 'growth', 42.3),
  ('COc1c(B(O)O)cc(F)cc1-c1nc2ccc3[nH]ncc3c2c2c1COCC2', 'growth', -5.84),
  ('C[C@H](NC(=O)c1ccc2c(-c3ccc(C(F)(F)F)cc3)cccc2c1)c1ccccn1', 'growth', 13),
  ('O=C1c2cccc3c(N4CCN(Cc5ccccc5)CC4)ccc(c23)C(=O)N1c1cccc(-c2nn(-c3ccccc3)cc2-c2nc3ccccc3s2)c1', 'growth', 99.8),
  ('COc1cccc(/C=C/c2nc3ccccc3c(=O)n2CC(=O)Nc2ccccc2)c1', 'growth', 0.184),
  ('COc1cc(CNC(=O)[C@]23CCC(C)(C)CC2C2=CCC4[C@@]5(C)CCC(OC(C)=O)C(C)(C)C5CC[C@@]4(C)[C@]2(C)CC3)ccc1OCc1cn(-c2ccc(Cl)cc2Cl)nn1 (stereo not given in full)', 'growth', 116),
  ('Cn1cc(-c2cc(N)n3nc(-c4c[nH]c5ccc(Cl)cc45)cc3n2)c2cc(Br)cnc21', 'growth', -70.4),
  ('Cc1cc(=O)oc2cc(OCC(O)CNN3C(=O)c4cccc5c(N6CCN(C)CC6)ccc(c45)C3=O)ccc12 (stereo not given)', 'growth', 82.3),
  ('Nc1nc2cc(-c3ccc4ncnc(NCc5ccccc5)c4c3)ccc2o1', 'growth', -75.6),
  ('COc1ccc2[nH]c(O)c(N=NC(=O)c3ccc4nc(-c5ccc(Cl)cc5)[nH]c4c3)c2c1', 'growth', 43.4),
  ('COC(=O)c1c(C(=O)OC)c2c3ccccc3c3ccccc3n2c1C(=O)C(F)(F)F', 'growth', 101),
  ('Cc1nc2sccn2c1-c1nnc(SCC(C)C)o1', 'growth', 104),
  ('CN1CCN(C(=O)Oc2cc3c(c4ccccc24)[C@H](CCl)CN3C(=O)c2cc3cc(OCCCN4CCC4)ccc3[nH]2)[C@H]2CSSC[C@H]21', 'growth', -78.8),
  ('CS(=O)(=O)Nc1cccc(-n2cnc3cc(-c4ccc(O)cc4)ccc32)c1', 'growth', -14.2),
  ('O=C1/C(=C/c2cccc3c2OCO3)Cc2c(F)cc(Br)cc21', 'growth', 104),
  ('COc1ccc([C@H]2C(C(=O)c3ccc(Cl)cc3)C3(N[C@@H]2c2ccccc2)C(=O)Nc2ccccc23)cc1 (stereo not given in full)', 'growth', 15.8),
  ('CC1CCc2c(sc3nc(SCC(=O)c4cccc(Br)c4)n(-c4ccccc4)c(=O)c23)C1 (stereo not given)', 'growth', 90.9),
  ('CCOC(=O)c1ccc(NC(=S)NC(=O)c2ccc(NC(=O)C(C)C)cc2OC)cc1', 'growth', 74.2),
  ('N#C/C(=C1/C(=O)Nc2ccccc21)c1nnc(NC(=O)c2ccc(-n3c(=O)[nH]c4ccccc4c3=O)cc2)s1', 'growth', 53.4),
  ('Oc1ccc(Cl)c(Nc2ncnc3c2cnn3CC(Cl)c2ccc(Br)cc2)c1 (stereo not given)', 'growth', -8.51),
  ('COc1cc(/C=C/C(=O)c2cnn(-c3cc(=O)[nH]c4ccc(Cl)cc34)c2C)cc(OC)c1OC', 'growth', -84.1),
  ('CS(=O)(=O)Nc1cncc(-c2ccc3ncnc(NCc4ccccc4)c3c2)c1', 'growth', 35.6),
  ('COc1ccc(Nc2ncnc3sc4c(c23)CCN(Cc2ccccc2)C4)cc1', 'growth', 74.6),
  ('COC(=O)c1ccc(-c2c(-c3ccccc3)c(F)c3oc(C(=O)OC)c(N)c3c2-c2ccccc2)cc1', 'growth', 95.6),
  ('CC(=O)c1ccc2c(N)c(C(=O)Nc3ccc(C(F)(F)F)cc3)sc2n1', 'growth', 85.8),
  ('COc1ccc2[nH]cc(-c3cc(N)n4nc(-c5c[nH]c6ccccc56)cc4n3)c2c1', 'growth', -72.2),
  ('COc1ccc(S(=O)(=O)Nc2ccc(-c3ccc4c(c3)NC(=O)/C4=C\c3ccc[nH]3)cc2)cc1OC', 'growth', -23),
  ('ClC(Cn1ncc2c(Nc3cccc(Br)c3)nc(SCCN3CCOCC3)nc21)c1ccc(Br)cc1 (stereo not given)', 'growth', -62.2),
  ('O=C(OCCOCCO)N(c1cccc(Br)c1)c1nc(SCCN2CCOCC2)nc2c1cnn2CC(Cl)c1ccc(Br)cc1 (stereo not given)', 'growth', -30),
  ('Nc1nn2c(-c3cc4cc(Br)ccc4oc3=O)ccnc2c1N=Nc1ccc(Br)cc1', 'growth', -31.4),
  ('COc1cccc(-c2ccc(/C=N/NC(=O)c3[nH]c4ccc(Br)cc4c3-c3ccccc3)s2)c1', 'growth', -63);
